Below, each entry is listed with its recorded Ka.
Target: T1, Rae1(31-368)-Nup98(157-213) heterodimer (human, UniProt P78406 31-368; P52948 157-213)
T1 construct: also called Rae1-Nup98; Rae1-Nup98 complex
T1 sequence (P78406 31-368, chain 1 of 2): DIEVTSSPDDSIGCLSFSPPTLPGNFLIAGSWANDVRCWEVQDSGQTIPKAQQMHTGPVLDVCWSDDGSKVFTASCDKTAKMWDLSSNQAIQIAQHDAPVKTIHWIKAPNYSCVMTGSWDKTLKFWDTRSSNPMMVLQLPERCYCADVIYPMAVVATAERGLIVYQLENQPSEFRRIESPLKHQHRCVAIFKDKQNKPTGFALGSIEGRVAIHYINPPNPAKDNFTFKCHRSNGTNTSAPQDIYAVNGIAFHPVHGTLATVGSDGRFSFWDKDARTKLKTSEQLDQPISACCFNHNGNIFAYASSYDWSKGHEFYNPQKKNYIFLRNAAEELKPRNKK
T1 sequence (P52948 157-213, chain 2 of 2): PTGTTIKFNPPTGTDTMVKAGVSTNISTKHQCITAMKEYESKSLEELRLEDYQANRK
Experiment: ITC
Conditions: both partners purified
Answer in M⁻¹, number only, no unit symbol.

Check out these entries, answers already filled in.
YSELDDEEPMELDYP [SARS-CoV ORF6 C3] : 2.69e+06
DEMDTHDPNQLRY [VSV-M-NTE] : 8550

Q. Fill in: Ka of YSQLDEEQPM (source: synthetic peptide) [SARS-CoV-2- ORF6-EID] is ___
A. 11400
